These data points were gathered from paper PMC9482650.

Quick reference: pKd of the listed items.
Target: T1, PDZRN3_1, Q9UPQ7
T1 sequence (Q9UPQ7 244-349, limits assumed, looked up): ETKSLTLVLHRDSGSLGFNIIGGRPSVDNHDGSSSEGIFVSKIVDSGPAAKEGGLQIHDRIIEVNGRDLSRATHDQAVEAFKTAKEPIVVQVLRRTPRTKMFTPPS
Experiment: holdup assay
Parameters: key: below the threshold = too weak to quantify, mostly under pKd 3.1 to 4
Conditions: plain residues with an end cap or a label only (N-terminal biotin on a linker: ado-ado)

{"binder": "MLSKQSESAI [FLVCR1, Q9Y5Y0]", "pKd": 3.78}
{"binder": "EVEEFPETSV [TRPV3, Q8NET8]", "pKd": 4.91}
{"binder": "LPAHHNATRL [SLC34A1, Q06495]", "pKd": 3.77}
{"binder": "QHKTQLQTLI [BPIFA2, Q96DR5]", "pKd": 3.65}
{"binder": "SAKVRTVTSV [RASL11B, Q9BPW5]", "pKd": 3.71}
{"binder": "NLSIEKETKL [ASNSD1, Q9NWL6]", "pKd": 4.67}
{"binder": "YLEPVLSSEL [ATP2A2, P16615]", "pKd": 3.7}
{"binder": "VKPQVSESKL [ACOT8, O14734]", "pKd": 3.68}
{"binder": "SKENVQETQI [LRRC4B, Q9NT99]", "pKd": 4.19}
{"binder": "TSQESEDTYL [TBC1D10A, Q9BXI6]", "pKd": 3.48}
{"binder": "SARSRLSSNL [HCN2, Q9UL51]", "pKd": 3.63}
{"binder": "PKRSFIESNV [TANC1, Q9C0D5]", "pKd": 3.87}
{"binder": "QGLAERISVL [PRKD2, Q9BZL6]", "pKd": 3.84}
{"binder": "RRISSLESEV [GRIN2C, Q14957]", "pKd": 4.24}
